These entries and their values trace back to PubChem BioAssay (NCI).

tested on: UO-31 renal; assay: NCI tumour cell line growth inhibition, 48 h; in the data active means GI50 below about 0.43 µM; inactive means the rest
Select the correct class. Options are class 1 for active, class 0 for inactive and nothing else.

Nc1nccc(C#Cc2cncnc2Nc2ccc(OCc3cccc(F)c3)c(Cl)c2)n1    class 0
Cn1cc(-c2ccc3c(c2)ncn3-c2ccc(CC(=O)Nc3cc(C(C)(C)C)on3)cc2)cn1    class 1
O=C(Nc1ccc(-n2cc(-c3ccncc3)c(-c3ccc(O)c(Cl)c3)n2)cc1)c1ccc(Cl)c(Cl)c1    class 0
CN(C)c1ccc(N=C(C#N)c2nc(N)nc(N3CCOCC3)n2)cc1    class 0
c1ccc(CNc2nc(Nc3ccc(-c4nc5ccccc5[nH]4)cc3)c3cn[nH]c3n2)cc1    class 0

As a next step, examine the compound that follows.
How was "Cc1nc(N=C(N)N)nc2ccc3ccccc3c12" classified in this test?
class 0

###

tested on: DLD-1 colon; assay: NCI tumour cell line growth inhibition, 48 h
endpoint name: TGI

Use these answered entries as a reference point.
Fc1cccc(C=NC23CC4CC(CC(C4)C2)C3)c1    > 100 µM
COc1ccc(C(=O)Nc2ccccc2)cc1[N+](=O)[O-]    > 100 µM
C=C1C(=O)C23C(O)C1CCC2C12CO[C@]3(O)[C@@H](O)C1C(C)(C)CCC2O (stereo partly drawn)    33.8 µM
CCOC(=O)C12CN(C34CC5CC(CC(C5)C3)C4)CC(C(=O)OCC)(C1=O)C(c1ccccc1)OC2c1ccccc1 (stereo not drawn)    > 100 µM
COc1ccc(Nc2nc3c(N)cc(C(F)(F)F)cc3nc2-c2ccccc2)cc1    > 100 µM

Now turn to the next molecule.
Report the value of TGI obtained on DLD-1 colon for Clc1ccc(C2=NN(c3ccccc3)C3c4cc(Br)ccc4OCC23)cc1 (stereo not drawn) .
> 100 µM

###

tested on: MCF7 breast; assay: NCI tumour cell line growth inhibition, 48 h
endpoint name: TGI

Use these answered entries as a reference point.
O=[N+]([O-])c1ccc2nc(/C=C(\O)c3ccccc3)c(/C=C(\O)c3ccc(Cl)cc3)nc2c1    > 100 µM
C=C1CCC2C3(C)COC(c4cccc(Cl)c4)OC3CCC2(C)C1/C=C/C1=CCOC1=O (configuration not stated)    > 100 µM
c1ncc(C23C4C5C6C4C2C6C53)[nH]1 (configuration not stated)    > 100 µM

Specify TGI for CC(C)=CCc1c(O)c(CC=C(C)C)c2oc3c(c(=O)c2c1O)C(C=C(C)C)Oc1cc(O)ccc1-3 (configuration not stated) and stop.
17.5 µM

Specify TGI for "NC(=NCc1ccccc1)N/N=C\c1ccnc2ccccc12" and stop.
25.5 µM

Specify TGI for "CN(Cc1cnc2nc(N)nc(N)c2n1)c1ccc(C(=O)NC2CCCCC2)cc1" and stop.
> 100 µM

Specify TGI for "Cc1ccc2c(c1)/C(=N\N=C/c1cn(C(C)C)c3ccccc13)C(=O)N2" and stop.
> 100 µM

###

The entries below are paired with their reported GI50.
tested on: SK-MEL-2 melanoma; test: NCI tumour cell line growth inhibition, 48 h

Use these answered entries as a reference point.
CC[C@]12C=CCN3CC[C@]4(C(=C(C(=O)OC)C1)Nc1ccccc14)[C@@H]32    4.45 µM
C=C1CCC2C3(C)COC(c4cccc(Cl)c4)OC3CCC2(C)C1/C=C/C1=CCOC1=O (centres undefined)    > 100 µM
CC1(C)CCC(CN2CCN(c3ccc(C(=O)NS(=O)(=O)c4ccc(NCC5CCOCC5)c([N+](=O)[O-])c4)c(Oc4cnc5[nH]ccc5c4)c3)CC2)=C(c2ccc(Cl)cc2)C1    1.63 µM
Cc1nc(N=C(N)N)nc2ccc3ccccc3c12    1.72 µM
OCCC#Cc1ccccc1C#Cc1ccccc1    40.6 µM

Specify GI50 for "COc1cc(-c2cn(-c3ccc(Cl)cc3)c(=O)n2-c2ccccc2)cc(OC)c1OC" and stop.
> 25.9 µM

Specify GI50 for "O=C1c2cccnc2-c2nc(-c3ccccc3)cc3c2c1nc1ccccc13" and stop.
5.53 µM

Specify GI50 for "C/C(=N\NC(=S)Nc1ccccc1)c1ccccn1" and stop.
1.37 µM

Specify GI50 for "C[CH2][Sn]([CH2]C)([O]C(=O)c1cc(OC)c(OC)c(OC)c1)[O][Sn]([CH2]C)([CH2]C)[O]C(=O)c1cc(OC)c(OC)c(OC)c1" and stop.
16.3 µM

###

The entries below are paired with their reported log10(TGI).
system: XF 498 CNS; experiment: NCI tumour cell line growth inhibition, 48 h
A difference of one corresponds to tenfold TGI; all values are log10 with TGI in µM.

Use these answered entries as a reference point.
CCOC(=O)C1=C(O)CSC1=Nc1ccc(N=C2SCC(O)=C2C(=O)OCC)cc1    1.62
S=c1nc(/C=C/c2ccc(Cl)c(Cl)c2)[nH][nH]1    1.98
Cc1ccc(S(=O)(=O)OC(C=O)C(O)C(O)COC(c2ccccc2)(c2ccccc2)c2ccccc2)cc1 (stereo unspecified)    1.47
CC1(C)CC[C@]2(C(=O)O)CCC3(C)C(=CCC4[C@@]5(C)CC[C@H](OC6OCC(O)C(O)C6OC6OC(CO)C(O)C(O)C6O)C(C)(C)C5CC[C@]43C)C2C1 (stereo partly specified)    0.66

Now turn to the next molecule.
Specify log10(TGI) for COc1cc(C2c3cc4c(cc3[C@@H](OCCN)[C@H]3COC(=O)C23)OCO4)cc(OC)c1O (stereo partly specified) and stop.
-0.31

###

test system: NCI-H522 lung; assay: NCI tumour cell line growth inhibition, 48 h
The entries below are paired with their reported TGI.

Use these answered entries as a reference point.
CCC1c2[nH]c3ccccc3c2C[C@H]2C(=O)NC(Cc3ccccc3)C(=O)N12 (stereo partly specified)    46.6 µM
CC(C)Cn1cnnc1NS(=O)(=O)c1cc(C(=O)NN)c(Cl)cc1S    > 10 µM
O=C(O)C1CCCCN1CCc1c[nH]c2ccccc12 (stereo unspecified)    > 100 µM
O=[N+]([O-])c1ccc2nc(/C=C(\O)c3ccccc3)c(/C=C(\O)c3ccc(Cl)cc3)nc2c1    79.7 µM
CCN(CC)c1ccc(/C=C/C2=[N+](C)c3ccccc3C2(C)C)cc1    21.8 µM

Specify TGI for CC(=O)N(CCc1ccccc1)C(C)(C#N)c1ccccc1 (stereo unspecified) and stop.
> 100 µM

Specify TGI for C=C1C(=O)C23C(O)C1CCC2C12CO[C@]3(O)[C@@H](O)C1C(C)(C)CCC2O (stereo partly specified) and stop.
2.15 µM

Specify TGI for CCOP(=O)(OCC)OC1CC(n2cnc3c(N(CC)CC)ncnc32)OC1CO[Si](C)(C)C(C)(C)C (stereo unspecified) and stop.
27.6 µM

Specify TGI for "NCCCNCCCNc1nc2ccccc2c2[nH]c3ccccc3c12" and stop.
0.563 µM

Specify TGI for "CC(=O)[CH-]C(=O)c1ccccc1.CC(=O)[CH-]C(=O)c1ccccc1.[O-]Cc1cccs1.[O-]Cc1cccs1.[Ti+4]" and stop.
> 100 µM

Specify TGI for Nc1nc(Cl)cc(NCC2(CO)CC(O)C2)n1 (stereo unspecified) and stop.
> 100 µM

###

tested on: NCI-H522 lung; test: NCI tumour cell line growth inhibition, 48 h
The entries below are paired with their reported TGI.

Use these answered entries as a reference point.
O=C(CCl)Nc1ccc(-c2nc3ccccc3s2)cc1    3.64 µM
Nc1cc2c3c(cccc3c1)C(=O)N(CCN1CCN(CCN3C(=O)c4cccc5cc(N)cc(c45)C3=O)CC1)C2=O    > 100 µM
CCOC(=O)/C(=C/c1c(-c2ccccc2)[nH]c2ccccc12)C(=O)c1ccc(Cl)cc1    > 100 µM
C=CCSC1=N/C(=C\c2ccco2)C(=O)N1CC=C    > 100 µM
CC1(C)O[C@@H]([C@@H](O)[C@H](O)C2SCCCS2)[C@@H](CO)O1    > 100 µM

Specify TGI for "CC1(C)CCC(CN2CCN(c3ccc(C(=O)NS(=O)(=O)c4ccc(NCC5CCOCC5)c([N+](=O)[O-])c4)c(Oc4cnc5[nH]ccc5c4)c3)CC2)=C(c2ccc(Cl)cc2)C1" and stop.
7.23 µM

Specify TGI for "N=C1SCCS1" and stop.
> 100 µM

###

test system: SN12C renal; experiment: NCI tumour cell line growth inhibition, 48 h
endpoint name: TGI (µM)
The reply should contain only the number, in µM.

Use these answered entries as a reference point.
CCCCCCCCCCCCCCCc1ccc(C(=O)C[n+]2ccccc2)cc1    2.13
NC(=NCc1ccccc1)N/N=C\c1ccnc2ccccc12    29.6

Specify TGI for "COc1ccc(OC)c(CC(=O)c2ccc(O)c(C(=O)NCCc3ccc(F)cc3)c2)c1" and stop.
19.4

###

test system: OVCAR-3 ovarian; experiment: NCI tumour cell line growth inhibition, 48 h
The entries below are paired with their reported TGI.

Use these answered entries as a reference point.
NC(=S)NS(=O)(=O)c1ccc(F)cc1    > 100 µM
COc1ccc(C2C(Cl)C(=O)N2NC(=O)c2ccc(NC(C)=O)cc2)cc1OC (centres undefined)    > 100 µM
COC(=O)C1(C)CCc2c(ccc3ccccc23)C1=O (centres undefined)    > 100 µM
CC(C)c1cc(C(C)C)c(P2(=O)CC3C(Cl)(Cl)C3(C)C2)c(C(C)C)c1 (centres undefined)    20.4 µM
C=C1C(=O)C23C(O)C1CCC2C12CO[C@]3(O)[C@@H](O)C1C(C)(C)CCC2O (some centres undefined)    30.3 µM

Now turn to the next compound.
Specify TGI for "CCOC(=O)c1cc(NC(=O)c2ccccc2)c(=O)n2c(cc3c(Cl)cccc32)c1O" and stop.
> 100 µM
